The reported numbers originate from patent US20210324054A1.

- target: DN-IV quality control recombinant protein (produced by the company) (dengue virus)
- assay name: BLI, antibody on AMC sensor
# koff listing for each entry below
Return type: number; implicit unit s⁻¹.

Prompt: Any idea what koff was measured for Mutation 1-25 (antibody, V domains shown) VH: EVQLQQPGPELVKPGASVKMSCKASGYTFTSSVIHWVRQKPGQGLEWIGYMNPYNDGLKYNEKFIGKAILTSDKSSSTAYMQLSSLTSEDSAVYYCTREGLFYVFDYWGQGTSVTVSS VL: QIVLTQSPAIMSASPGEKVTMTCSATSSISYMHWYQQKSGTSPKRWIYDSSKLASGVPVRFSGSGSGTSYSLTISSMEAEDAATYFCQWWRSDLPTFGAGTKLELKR ?
Response: 0.00014

Shift focus to the following entry.
Prompt: Consider the binder Mutation 1-16 (antibody, V domains shown) VH: EVQLQQPGPELVKPGASVKMSCKASGYTFTSSVIHWVRQKPGQGLEWIGYMNPYNDGLKYNEKFIGKAILTSDKSSSTAYMQLSSLTSEDSAVYYCTREGLFYVMDYWGQGTSVTVSS VL: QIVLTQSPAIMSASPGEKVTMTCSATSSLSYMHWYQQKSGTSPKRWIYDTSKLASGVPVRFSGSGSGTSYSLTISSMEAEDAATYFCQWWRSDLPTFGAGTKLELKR and give its measured koff.
Response: 0.000124
